Assay: Aqueous solubility of the compound
Type: physicochemical
Conditions: water
property.measured: solubility

Item COc1cc(C(C)(C)C)ccc1C(=O)Nc1ccc(CC(=O)O)cc1 has what recorded solubility?
16 µg/mL

---

Experiment: Metabolic stability in Sprague-Dawley rat liver microsomes assessed as parent compound remaining at 10 uM in presence of NADPH measured after 60 mins by HPLC analysis
Format: ADME, microsome
Conditions: read-out: Stability
property.measured: remaining at 1 h, 10 µM (%)
Just the number please, in %, no unit attached.

Which remaining at 1 h, 10 µM value belongs to COc1cc(C(C)(C)C)ccc1C(=O)Nc1ccc(CC(=O)O)cc1 ?
97

---

Assay: Metabolic stability in Sprague-Dawley rat liver microsomes assessed as parent compound remaining at 10 uM in presence of NADPH measured immediately by HPLC analysis
Type: ADME, microsome
Conditions: read-out: Stability
property.measured: remaining at 0 min, 10 µM
Report the figure along with its unit, number first.

Which remaining at 0 min, 10 µM value is on record for COc1cc(C(C)(C)C)ccc1C(=O)Nc1ccc(CC(=O)O)cc1 ?
100%
